test system: CYP11B1 / CYP11B2; assay: Selectivity ratio of IC50 for inhibition of human CYP11B1 stably transfected in mouse Y-1 cells to IC50 for inhibition of human CYP11B2 stably transfected in mouse Y-1 cells; assay type: ADME, cell-based; settings: read-out: Ratio IC50
Quantity name: selectivity ratio

- Molecule: "CC(C#N)c1cncc(-c2ccc(C#N)c(F)c2)c1 (stereo not drawn)"
  Meas value: 52.8
- Molecule: "N#Cc1cncc(-c2ccc(C#N)c(F)c2)n1"
  Meas value: 28.8
- Molecule: "N#Cc1ccc(-c2cncc(C(=O)N3CCCC3)c2)cc1F"
  Meas value: 4.3
- Molecule: "N#Cc1ccc(-c2cncc(C(=O)OCCF)c2)cc1Cl"
  Meas value: 9.8
- Molecule: "COC(C)c1cncc(-c2ccc(C#N)c(F)c2)c1 (stereo not drawn)"
  Meas value: 1.3
- Molecule: "N#CCc1cncc(-c2ccc(C#N)c(F)c2)c1"
  Meas value: 18.3
- Molecule: "N#Cc1ccc(-c2cncc(OCCF)c2)cc1Cl"
  Meas value: 26.1
- Molecule: "N#Cc1cncc(-c2ccc(C#N)c(F)c2)c1"
  Meas value: 18.7
- Molecule: "N#Cc1ccc(-c2cncc(OCCCF)c2)cc1Cl"
  Meas value: 1.5
- Molecule: "Fc1cc(-c2cncc3ccccc23)ccc1C(F)(F)F"
  Meas value: 51
- Molecule: "N#Cc1ccc(-c2cncc(N)c2)cc1F"
  Meas value: 6.2
- Molecule: "N#Cc1ccc(-c2cncc(-c3ccc(F)nc3)c2)cc1Cl"
  Meas value: 96
- Molecule: "Fc1cc(-c2cncc(Cl)n2)ccc1C(F)(F)F"
  Meas value: 2.5
- Molecule: "N#Cc1ccc(-c2cncc(-c3cccnc3F)c2)cc1Cl"
  Meas value: 21.5
- Molecule: "N#Cc1ccc(-c2cncc(C(F)(F)F)c2)cc1F"
  Meas value: 26.7
- Molecule: "CSc1cncc(-c2ccc(C#N)c(F)c2)c1"
  Meas value: 27.1
- Molecule: "Fc1cc(-c2cncc(Br)c2)ccc1C(F)(F)F"
  Meas value: 11.8
- Molecule: "N#Cc1ccc(-c2cncc3ccccc23)cc1F"
  Meas value: 0.9
- Molecule: "N#Cc1ccc(-c2cncc(-c3ccc(F)cc3)c2)cc1F"
  Meas value: 48.3
- Molecule: "Cc1cncc(-c2ccc(C#N)c(F)c2)c1"
  Meas value: 58
- Molecule: "CC(C)Oc1cncc(-c2ccc(C#N)c(F)c2)c1"
  Meas value: 18.5
- Molecule: "CN(C)c1cncc(-c2ccc(C#N)c(F)c2)n1"
  Meas value: 63.1
- Molecule: "N#Cc1ccc(-c2cncc(CO)c2)cc1F"
  Meas value: 56.2
- Molecule: "N#Cc1ccc(-c2cncc(C3OCCO3)c2)cc1F"
  Meas value: 40.1
- Molecule: "CCN(CC)c1cncc(-c2ccc(C#N)c(F)c2)n1"
  Meas value: 24.8
- Molecule: "COc1ccc(-c2cncc(-c3ccc(C(F)(F)F)c(F)c3)c2)cc1"
  Meas value: 18.2
- Molecule: "CC1COC(c2cncc(-c3ccc(C#N)c(F)c3)c2)O1 (stereo not drawn)"
  Meas value: 48.8
- Molecule: "COc1cncc(-c2ccc(C#N)c(F)c2)c1"
  Meas value: 62
- Molecule: "N#Cc1ccc(-c2cncc(Cl)c2)cc1F"
  Meas value: 61.3
- Molecule: "COc1cncc(-c2ccc(C(F)(F)F)c(F)c2)c1"
  Meas value: 85.2
- Molecule: "CC1(c2cncc(-c3ccc(C#N)c(F)c3)c2)OCCO1"
  Meas value: 12.6
- Molecule: "Cc1ccc(-c2cncc(-c3ccc(C(F)(F)F)c(F)c3)n2)cc1"
  Meas value: 1.4
- Molecule: "Fc1cc(-c2cncc(C3OCCO3)c2)ccc1C(F)(F)F"
  Meas value: 116
- Molecule: "Cc1cncc(-c2ccc(C#N)c(F)c2)n1"
  Meas value: 38.5
- Molecule: "COc1cncc(-c2ccc(C#N)c(F)c2)n1"
  Meas value: 85.6
- Molecule: "N#Cc1ccc(-c2cncc(F)c2)cc1F"
  Meas value: 0.9
- Molecule: "N#Cc1ccc(-c2cncc(C3OCCCO3)c2)cc1F"
  Meas value: 58.9
- Molecule: "N#Cc1ccc(-c2cncc(C(F)F)c2)cc1F"
  Meas value: 32.2
